Study target: T1, human S100A4 dimer (Homo sapiens, UniProt P26447 1-101)
T1 construct: In the SPR it was captured on an anti-His surface, so it carried a His tag; also called recombinant human S100A4 dimer
T1 sequence (P26447 whole entry, one chain of several): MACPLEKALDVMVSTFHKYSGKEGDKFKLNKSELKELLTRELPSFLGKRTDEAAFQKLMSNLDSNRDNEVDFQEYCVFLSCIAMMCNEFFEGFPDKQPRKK
Test protocol: SPR, Biacore T200, 25 C; S100A4 captured via anti-His, antibody as analyte (0.78-200 nM), 1:1 fit
Measured Kd accompanies every entry in the list below.
Please provide the amount together with its unit, number first.

Record excerpt, results attached:
Inquiry: What value of Kd has been recorded for this entry: VH1_H40Phe + H44Lys VL3 (antibody, V domains shown) VH: QVQLQESGPGLVKPSQTLSLTCTVSGDSFTNDYYWNWIRQFPGKKLEWIGHIGYGGNINYNPSLKNRLSMSRDTSKNQFSLKLSSVTAADTAVYYCTRESFYDGYPFDYWGQGTLVTVSS VL: DIQMTQSPSSLSASVGDRVTITCRASQDIRNYLNWYQQKPGKAPKLLLYYTSRLHSGVPSRFSGSGSGTDYTLTISSLQPEDFATYYCQQGNSLPRTFGGGTKVEIK
Reply text: 2.43 nM

Inquiry: Then what about the binder VH1 VL3_L42Gly+L44Leu (antibody, V domains shown) VH: QVQLQESGPGLVKPSQTLSLTCTVSGDSFTNDYYWNWIRQHPGKGLEWIGHIGYGGNINYNPSLKNRLSMSRDTSKNQFSLKLSSVTAADTAVYYCTRESFYDGYPFDYWGQGTLVTVSS VL: DIQMTQSPSSLSASVGDRVTITCRASQDIRNYLNWYQQKPGGALKLLLYYTSRLHSGVPSRFSGSGSGTDYTLTISSLQPEDFATYYCQQGNSLPRTFGGGTKVEIK ?
Reply text: 1.99 nM

Moving on to another binder below.
Inquiry: Any idea what its Kd is? The binder is VH1 VL3 (antibody, V domains shown, Humanized antibody) VH: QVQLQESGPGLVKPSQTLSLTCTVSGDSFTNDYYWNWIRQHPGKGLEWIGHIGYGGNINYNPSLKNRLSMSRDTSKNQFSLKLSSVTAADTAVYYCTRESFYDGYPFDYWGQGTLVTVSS VL: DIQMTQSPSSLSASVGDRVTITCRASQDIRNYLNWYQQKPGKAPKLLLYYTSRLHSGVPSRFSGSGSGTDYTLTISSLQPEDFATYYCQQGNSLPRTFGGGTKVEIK
Reply text: 3.47 nM
